- PROTOCOL: Apparent clearance of oral drug in healthy human assessed as drug excreted unchanged at 400 mg, po Bid for 1 week by LC-MS/MS analysis
- Type: ADME, organism-based
- PARTICULARS: in vivo, read-out: Fraction excreted unchanged
METRIC_NAME: dose excreted at 168 h (%)
Write the answer as a number in %, unit excluded.

Ask: Can you look up the measured dose excreted at 168 h of Cc1nnc(C(=O)NC(C)(C)c2nc(C(=O)NCc3ccc(F)cc3)c(O)c(=O)n2C)o1 [RALTEGRAVIR] for me?
Result: 2.9

Provenance of the data: ChEMBL document CHEMBL1671760
